Numbers sourced from ChEMBL document CHEMBL1150393.

# experimental_protocol: Biodistribution in tumor of C57BL/6 mouse bearing mouse B16-F0 cells at 0.74 to 0.92 MBq, iv after 72 hrs
# Type: ADME, organism-based, Neoplasm
# protocol_conditions: in vivo
metric: Drug uptake (% ID/g)
One number for each entry, in % ID/g.

# structure, Drug uptake / % ID/g
records = [
    ("CCN(CC)CCNC(=O)c1cnc2cc([125I])ccc2n1.Cl.Cl", 12.5),
]

Dear colleague, could you send me Drug uptake for each of the items below? Thanks.
1. CCN(CC)CCNC(=O)c1ccc(I)cc1
2. CCN(CC)CCNC(=O)c1ccc2cncc([125I])c2n1.Cl.Cl
3. CCN(CC)CCNC(=O)c1nc2cc([125I])ccc2[nH]1.Cl.Cl
4. CCN(CC)CCNC(=O)c1cc2cc([125I])ccc2[nH]1.Cl
5. CCN(CC)CCNC(=O)c1ccc([125I])nc1.Cl.Cl
6. CCN(CC)CCNC(=O)c1cc2c([125I])cccc2cn1.Cl.Cl
7. CCN(CC)CCNC(=O)c1cn2cc([125I])ccc2n1.Cl.Cl

1. 0.8
2. 3.3
3. 4.5
4. 0.8
5. 0.9
6. 3.1
7. 2.7

Dear colleague, could you send me Drug uptake for each of the items below? Thanks.
1. CCN(CC)CCNC(=O)c1cc2c([125I])cccc2s1.Cl
2. CCN(CC)CCNC(=O)c1cc2cc([125I])ccc2o1.Cl
3. CCN(CC)CCNC(=O)c1ccc2cc([125I])ccc2c1.Cl
4. CCN(CC)CCNC(=O)c1ccc2cc([125I])ccc2n1.Cl.Cl
5. CCN(CC)CCNC(=O)c1c[nH]c2ccc([125I])cc2c1=O.Cl.Cl

1. 1.7
2. 2
3. 1.5
4. 5.9
5. 2.4

###

# experimental_protocol: Ratio of drug level in tumor to liver of C57BL/6 mouse bearing mouse B16-F0 cells at 0.74 to 0.92 MBq, iv after 3 hrs
# Format: ADME, organism-based
# protocol_conditions: in vivo
Given measured Ratio, output yes if it is greater than or equal to 3 and no if not.

# structure, group_label
data = [
    ("CCN(CC)CCNC(=O)c1ccc2cc([125I])ccc2n1.Cl.Cl", "no"),
    ("CCN(CC)CCNC(=O)c1cc2c([125I])cccc2s1.Cl", "yes"),
    ("CCN(CC)CCNC(=O)c1nc2cc([125I])ccc2[nH]1.Cl.Cl", "no"),
    ("CCN(CC)CCNC(=O)c1c[nH]c2ccc([125I])cc2c1=O.Cl.Cl", "no"),
    ("CCN(CC)CCNC(=O)c1cn2cc([125I])ccc2n1.Cl.Cl", "yes"),
]

Ratio >= 3 for CCN(CC)CCNC(=O)c1cc2cc([125I])ccc2o1.Cl ? no

Ratio >= 3 for CCN(CC)CCNC(=O)c1cnc2cc([125I])ccc2n1.Cl.Cl ? yes

###

What Ratio was measured for each of the following?
# experimental_protocol: Ratio of drug level in tumor to lung of C57BL/6 mouse bearing mouse B16-F0 cells at 0.74 to 0.92 MBq, iv after 6 hrs
# Format: ADME, organism-based
# protocol_conditions: in vivo
One number for each entry.

# structure, Ratio
data = [
    ("CCN(CC)CCNC(=O)c1ccc2cncc([125I])c2n1.Cl.Cl", 9.03),
]

Dear colleague, could you send me Ratio for each of the items below? Thanks.
1. CCN(CC)CCNC(=O)c1c[nH]c2ccc([125I])cc2c1=O.Cl.Cl
2. CCN(CC)CCNC(=O)c1ccc([125I])nc1.Cl.Cl

1. 38.73
2. 2.17
